Below, each entry is listed alongside its reported IC50.
targetOrSystem: cyclin E/CDK2 enzyme (Homo sapiens, UniProt P24941)
Construct: made in house; host or cells: Sf9 insect cells, recombinant baculovirus
assayOverview: CDK2 ELISA kinase assay (phospho-Rb ser 795 detection)
Format: biochemical
testSettings: In Vitro Enzyme Assay, cyclin E/CDK2, read-out: CDK2 IC50

smilesData | targetOrSystem | signQualifier | IC50 [µM]
NS(=O)(=O)c1ccc(CNC=C2C(=O)NC(=O)c3ccc(-c4cccc(F)c4)cc32)cc1 | cyclin E/CDK2 enzyme (Homo sapiens, UniProt P24941) | > | 50
CC(=O)c1cccc(-c2ccc3c(c2)C(=CNCc2ccc(O)c(O)c2)C(=O)NC3=O)c1 | cyclin E/CDK2 enzyme (Homo sapiens, UniProt P24941) | = | 13.8
CN1CCN(c2ccc(NC=C3C(=O)NC(=O)c4ccc(-c5cc[nH]c5)cc43)cc2)CC1 | cyclin E/CDK2 enzyme (Homo sapiens, UniProt P24941) | > | 50
O=C1NC(=O)c2ccc(C=Cc3ccccn3)cc2C1=CNCc1ccc(O)c(O)c1 | cyclin E/CDK2 enzyme (Homo sapiens, UniProt P24941) | > | 50
O=C1NC(=O)c2ccc(-c3cccc(C(=O)O)c3)cc2C1=CNCc1ccc(O)c(O)c1 | cyclin E/CDK2 enzyme (Homo sapiens, UniProt P24941) | = | 10
O=C1NC(=O)c2ccc(-c3cccc([N+](=O)[O-])c3)cc2C1=CNCc1ccc(O)c(O)c1 | cyclin E/CDK2 enzyme (Homo sapiens, UniProt P24941) | = | 27.1
CN(C)c1ccc(-c2ccc3c(c2)C(=CNCc2ccc(O)c(O)c2)C(=O)NC3=O)cc1 | cyclin E/CDK2 enzyme (Homo sapiens, UniProt P24941) | = | 24.2
O=C1NCc2cc(Br)ccc2C1=CNc1ccc(CN2CCCC2)cc1 | cyclin E/CDK2 enzyme (Homo sapiens, UniProt P24941) | > | 50
CCNCC1CCN(c2ccc(N/C=C3\C(=O)NC(=O)c4ccc(I)cc43)cc2)CC1 | cyclin E/CDK2 enzyme (Homo sapiens, UniProt P24941) | > | 50
CCN(CC)Cc1ccc(NC=C2C(=O)NC(=O)c3ccccc32)cc1 | cyclin E/CDK2 enzyme (Homo sapiens, UniProt P24941) | = | 30.4

----------
Tested on: HCT-116
assayOverview: Cytotoxicity assay (SRB), HCT-116
Format: cell-based
testSettings: Homo sapiens, HCT-116, 72 h, HCT116 cells, SRB, three days; read-out: In Vitro Cellular Activity IC50 HCT116
pIC50: −log10 of the molar value.
Below, each entry is listed alongside its reported pIC50.

compound | signQualifier | pIC50
CO[C@@H]1CCN(Cc2ccc(N/C=C3\C(=O)NC(=O)c4ccc(I)cc43)cc2)C1 | = | 5.36
COCC1CCCN1Cc1ccc(N/C=C2\C(=O)NC(=O)c3ccc(Br)cc32)cc1 (stereo in doubt) | = | 5.12
O=C1NC(=O)c2ccccc2/C1=C/NCc1cccc(O)c1 | < | 4.30
COc1ccc2c(c1)/C(=C/NCc1ccc(OC)c(O)c1)C(=O)NC2=O | = | 5.01
CN1CCN(c2ccc(N/C=C3\C(=O)NC(=O)c4ccc(-c5ccoc5)cc43)cc2)CC1 | = | 5.92
C[C@@H]1CN(c2ccc(N/C=C3\C(=O)NC(=O)c4ccc(I)cc43)cc2F)C[C@H](C)N1 | = | 5.82
O=C1NC(=O)c2ccc(-c3ccc(C(F)(F)F)cc3)cc2/C1=C/Nc1ccc(CN2CCCC2)cc1 | = | 5.96
O=C1NC(=O)c2ccc(Br)cc2/C1=C/N1CCN(CCN2CCOCC2)CC1 | = | 4.37
CC(=O)Oc1cc(CNC=C2C(=O)NC(=O)c3ccc(Br)cc32)cc(OC(C)=O)c1 | = | 5.19
COc1ccc(CN/C=C2\C(=O)NC(=O)c3cccc(Br)c32)cc1O | = | 5.51
O=C1NC(=O)c2ccc(Br)cc2/C1=C/NCc1ccc(Cl)cc1 | = | 4.49
CC(=O)Oc1ccc(CN/C=C2\C(=O)NC(=O)c3ccccc32)cc1OC(C)=O | = | 4.68
CN1CCC(c2ccc(N/C=C3\C(=O)NC(=O)c4ccc(-c5ccsc5)cc43)cc2)CC1 | = | 5.82
COc1ccc(C(=O)NN/C=C2\C(=O)NC(=O)c3ccc(Br)cc32)cc1O | < | 4.30
CCCN1CCN(c2ccc(N/C=C3\C(=O)NC(=O)c4ccc(I)cc43)cc2)CC1 | = | 5.57
CN(C)NC(=O)c1ccc(N/C=C2\C(=O)NC(=O)c3ccc(Br)cc32)cc1 | = | 4.68

Hello, the source for this data is patent US7713994B2, in case you need it.
